Recorded measurements of fold reduction in binding affinity vs [Ala^1,Arg^19]PTH(1-31)NH2, one per entry
subject_of_test: PTHR-delNt (human) (UniProt Q03431)
Sequence (Q03431 185-593, form in doubt): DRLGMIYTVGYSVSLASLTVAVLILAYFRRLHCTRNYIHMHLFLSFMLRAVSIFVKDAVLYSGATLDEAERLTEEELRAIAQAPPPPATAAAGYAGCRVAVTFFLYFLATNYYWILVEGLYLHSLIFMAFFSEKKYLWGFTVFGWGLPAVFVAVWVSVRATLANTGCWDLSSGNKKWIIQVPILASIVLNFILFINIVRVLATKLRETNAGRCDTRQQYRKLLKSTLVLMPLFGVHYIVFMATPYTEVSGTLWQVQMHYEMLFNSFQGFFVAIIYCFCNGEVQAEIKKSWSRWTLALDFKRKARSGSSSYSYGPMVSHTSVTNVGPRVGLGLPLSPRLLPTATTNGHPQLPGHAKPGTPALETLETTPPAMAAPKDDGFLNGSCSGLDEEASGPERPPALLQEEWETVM
assay_comment: competition binding, COS-7 membranes, 125I-[Aib1,3,M]PTH(1-15) tracer
Where no end group is shown, it is not given here.
parameter_measured: fold reduction in binding affinity vs [Ala^1,Arg^19]PTH(1-31)NH2

{"binder": "AVSEIQLMHNLGKHLNSMRRVEWERKKLQDV-NH2 [[Ala^1,Arg^19]hPTH(1-31)NH2 Leu^24→Glu]", "readout_value": "< 3 fold"}
{"binder": "AVSEIQLMHNLGKHLNSMREVEWLRKKLQDV-NH2 [[Ala^1,Arg^19]hPTH(1-31)NH2 Arg^20→Glu]", "readout_value": "< 3 fold"}
{"binder": "AVSEIQLMHNLGKHLNSMRRVEELRKKLQDV-NH2 [[Ala^1,Arg^19]hPTH(1-31)NH2 Trp^23→Glu]", "readout_value": "< 3 fold"}
